- STUDY_TARGET: IgE antibodies of the allergic patient serum pool Bor 18/100 (20 donors)
- PROTOCOL_SUMMARY: EAST inhibition, serum pool Bor 18/100
PROPERTY_MEASURED: allergenic potency (Prel) at 25% inhibition (relative to native Phl p 5b)
Just the number, please, no unit after it.

BINDER | VAL
rPhl p 5b deletion mutant DM3 (deletion A154-T177, A220T) (protein) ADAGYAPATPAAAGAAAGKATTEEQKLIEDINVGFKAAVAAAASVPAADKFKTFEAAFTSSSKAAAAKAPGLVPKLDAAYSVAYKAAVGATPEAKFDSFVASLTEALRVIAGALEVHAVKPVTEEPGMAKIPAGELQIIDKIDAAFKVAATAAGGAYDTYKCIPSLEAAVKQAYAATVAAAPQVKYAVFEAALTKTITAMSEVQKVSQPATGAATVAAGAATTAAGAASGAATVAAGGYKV | 0.028

Now look at this entry.
Query (binder): rPhl p 5b deletion mutant DM1 (deletion K50-P132, D49L) (protein) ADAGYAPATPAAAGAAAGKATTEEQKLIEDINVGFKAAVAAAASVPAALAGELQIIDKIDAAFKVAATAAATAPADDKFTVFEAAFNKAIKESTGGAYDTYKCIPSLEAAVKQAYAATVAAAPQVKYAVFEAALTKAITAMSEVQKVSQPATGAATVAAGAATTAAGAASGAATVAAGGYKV ; field requested: allergenic potency (Prel) at 25% inhibition (relative to native Phl p 5b)
0.039

The values you see were collected from patent US6919086B1.
